In this section we review reported pKd values for a set of binders.
- Measured On: SARS-CoV-2 spike extracellular domain (SARS-CoV-2, UniProt P0DTC2 14-1213)
- Assay Remarks: ELISA
As a rule, pKd stands for the negative log10 of the concentration, concentration in M.

Illustrative cases are given below, each with its answer.
IN: Quote pKd reported for FJ 1C (antibody, V domains shown) VH: QVQLQESGPGLVKPSETLSLTCTVSGYSISSGYYWGWIRQPPGKGLEWIGSIYHSGSTYYNPSLKSRVTISVDTSKNQFSLKLSSVTAADTAVYYCARDKALLWFGELFTNLFDYWGQGTLVTVSS VL: QSALTQPASVSGSPGQSITISCTGTSSDVGGYNYVSWYQQHPGKAPKLMIYEVSNRPSGVSNRFSGSKSGNTASLTISGLQAEDEANYYCSSYTSSSTLVFGGGTKLTVL please.
OUT: 9.24

IN: Quote pKd reported for FN 12A (antibody, V domains shown) VH: QVQLVQSGAEVKKPGSSVKVSCKASGGTFSSYAISWVRQAPGQGLEWMGRIIPILGIANYAQKFQGRVTITADKSTSTAYMELSSLRSEDTAVYYCARSGCSSTSCPSNLYYYYYGMDVWGQGTTVTVSS VL: QSVLTQPPSVSAAPGQKVTISCSGSSSNIGNNYVSWYQQLPGTAPKLLIYDNNKRPSGIPDRFSGSKSGTSATLGITGLQTGDEADYYCGTWDSSLSALVFGGGTKLTVL please.
OUT: 9.42

Here is another binder to look at.
IN: Quote pKd reported for FI 1C (antibody, V domains shown) VH: EVQLVESGGGLVKPGGSLRLSCAASGFTFSDYYMSWIRQAPGKGLEWVSYISSSGSTIYYADSVKGRFTISRDNAKNSLYLQMNSLRAEDTAVYYCARRSNRFLIAFDIWGQGTMVTVSS VL: QSALTQPASVSGSPGQTITISCTGTSSDVGGYNYVSWYQQHPGKAPKLMIYEVSNRPSGVSNRFSGSKSGNTASLTISGLQAEDEADYYCSSYTSSSTLVVFGGGTKLTVP please.
OUT: 8.93

Taken from patent US20230279079A1.
